# Test system: CCRIS mutagenicity, Ames/micronucleus/aberration tests
# assay_procedure: CCRIS mutagenicity studies
# stated_conditions: Test System: AMES SALMONELLA TYPHIMURIUM; Strain/Indicator: TA100; Metabolic Activation: MOUSE, LIVER, S-9; Method: PREINCUBATION
Active and inactive are the calls of the source. How the calls were made is not given here.
Choose the fitting class; nothing outside active, inactive is accepted.

input: Each compound tested received a call. Report the one for O=C1NCNC(=O)N1 .
output: inactive

input: Each compound tested received a call. Report the one for O=c1cn[nH]c(=O)[nH]1 .
output: inactive

input: Each compound tested received a call. Report the one for O=NN1CCCCC1 .
output: active

input: Each compound tested received a call. Report the one for C1O[C@@H]1[C@@H]1CO1 .
output: inactive
